- Tested on: Neu5Ac(a2-3)Gal(b1-4)GlcNAc(b1-2)[Neu5Ac(a2-3)Gal(b1-4)GlcNAc(b1-4)]Man(a1-3)[GlcNAc(b1-4)][Neu5Ac(a2-3)Gal(b1-4)GlcNAc(b1-2)[Neu5Ac(a2-3)Gal(b1-4)GlcNAc(b1-6)]Man(a1-6)]Man(b1-4)GlcNAc(b1-4)GlcNAc
- Assay name: glycan array binding signal (z-score within array); higher = stronger binding
- Experimental conditions: glycan notation: IUPAC condensed, linker removed
This is one part of a sample in which the strongest signals are shown more often than they occur.
Readout: glycan array binding signal (z-score)
Give the figure by itself; no unit, no explanation.

Task: What glycan array binding signal (z-score) value was documented for this binder, AFCNVH (Aspergillus fumigatus) (protein) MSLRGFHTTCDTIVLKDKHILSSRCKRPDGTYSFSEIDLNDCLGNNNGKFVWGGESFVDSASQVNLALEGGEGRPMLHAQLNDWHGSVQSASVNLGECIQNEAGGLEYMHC ?
Output: -0.351

The reported measurements were obtained from the supplement of paper PMC8728848.
